Listed here: items and their measured Ki.
Molecular target: LXRβ (Homo sapiens, UniProt P55055)
Sequence (P55055 1-460): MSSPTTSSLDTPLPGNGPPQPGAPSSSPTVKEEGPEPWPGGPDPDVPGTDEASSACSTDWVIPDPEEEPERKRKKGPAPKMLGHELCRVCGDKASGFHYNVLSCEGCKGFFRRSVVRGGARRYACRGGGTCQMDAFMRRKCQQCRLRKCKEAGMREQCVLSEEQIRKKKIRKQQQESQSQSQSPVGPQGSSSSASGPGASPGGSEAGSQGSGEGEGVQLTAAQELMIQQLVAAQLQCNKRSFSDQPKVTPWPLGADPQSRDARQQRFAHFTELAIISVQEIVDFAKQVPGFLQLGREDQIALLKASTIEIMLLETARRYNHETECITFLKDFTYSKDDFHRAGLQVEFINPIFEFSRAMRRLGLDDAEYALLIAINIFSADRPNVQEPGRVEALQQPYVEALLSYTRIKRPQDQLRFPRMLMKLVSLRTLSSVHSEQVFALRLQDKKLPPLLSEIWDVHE
Sequence (P19793 1-462 partner): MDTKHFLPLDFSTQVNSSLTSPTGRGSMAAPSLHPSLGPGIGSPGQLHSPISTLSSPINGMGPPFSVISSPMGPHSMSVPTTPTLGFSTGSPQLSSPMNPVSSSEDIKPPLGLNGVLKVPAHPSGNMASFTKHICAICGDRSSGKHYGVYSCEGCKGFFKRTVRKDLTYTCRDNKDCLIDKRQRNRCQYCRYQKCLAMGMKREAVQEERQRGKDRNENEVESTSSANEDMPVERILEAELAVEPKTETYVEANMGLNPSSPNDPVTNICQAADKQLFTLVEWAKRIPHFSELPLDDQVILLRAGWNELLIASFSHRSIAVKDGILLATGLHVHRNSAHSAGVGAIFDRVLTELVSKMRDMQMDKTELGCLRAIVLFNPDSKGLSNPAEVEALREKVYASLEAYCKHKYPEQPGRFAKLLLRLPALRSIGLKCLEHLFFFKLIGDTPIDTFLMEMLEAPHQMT
propertyName: Ki (nM)

In [3]: df
Out[3]:
                          structureassmiles  recordedvalue
0  Cc1ccc(Cn2c(-c3ccccc3)cc(C(F)(F)F)c(C#N)c2=O)o1            230
1  N#Cc1c(C(F)(F)F)cc(-c2cccs2)n(Cc2ccccc2)c1=O            580
